pIC50: −log10 of the molar value.
Observed pIC50 for human PDE4D catalytic domain (Homo sapiens), reported per entry below.

Solved cases below.
CCc1nn(CCOC(=O)C2CCN(C(C)=O)CC2)c2c1C(=O)NCC1(CCOCC1)C2	< 6.30
CCc1nn(CCCOC(=O)C2CCN(C(C)=O)C2)c2c1C(=O)NCC1(CCOCC1)C2 (centres unmarked)	< 6.30
CCc1nn(CCOC(=O)c2cnc(C)o2)c2c1C(=O)NCC1(CCOCC1)C2	< 6.30
CCc1nn(CCCOC(=O)c2csnn2)c2c1C(=O)NCC1(CCOCC1)C2	6.30 to 7.00
CCc1nn(CCCOC(=O)C2CCSCC2)c2c1C(=O)NCC1(CCOCC1)C2	6.30 to 7.00
CCc1nn(CCCOC(=O)c2cn[nH]c2)c2c1C(=O)NCC1(CCOCC1)C2	6.30 to 7.00

What value of pIC50 has been recorded for this entry: CCc1nn(CCCOC(=O)c2cn(C)cn2)c2c1C(=O)NCC1(CCOCC1)C2 < 6.30

Next molecule: CCc1nn(CCCOC(=O)c2nc(C)c(C)s2)c2c1C(=O)NCC1(CCOCC1)C2 6.30 to 7.00

* * *

Observed IC50 for human PDE4D catalytic domain (Homo sapiens), reported per entry below.

CCc1nn(CCCOC(=O)c2cc(O)no2)c2c1C(=O)NCC1(CCOCC1)C2	0.1 to 0.5 µM
CCc1nn(CCCOC(=O)C2CCSC2)c2c1C(=O)NCC1(CCOCC1)C2 (centres unmarked)	0.1 to 0.5 µM
CCc1nn(CCCOC(=O)C2CCCS(=O)(=O)C2)c2c1C(=O)NCC1(CCOCC1)C2 (centres unmarked)	> 0.5 µM
CCc1nn(CCCOC(=O)c2cc(C)nn2C)c2c1C(=O)NCC1(CCOCC1)C2	0.1 to 0.5 µM
CCc1nn(CCCOC(=O)c2cc(C)ccn2)c2c1C(=O)NCC1(CCOCC1)C2	> 0.5 µM
CCc1nn(CCOC(=O)c2cscn2)c2c1C(=O)NCC1(CCOCC1)C2	> 0.5 µM
CCc1nn(CCOC(=O)Cc2cc(C)no2)c2c1C(=O)NCC1(CCOCC1)C2	> 0.5 µM
CCc1nn(CCCOC(=O)c2nccc(C)n2)c2c1C(=O)NCC1(CCOCC1)C2	> 0.5 µM

What value of IC50 has been recorded for this entry: CCc1nn(CCCOC(=O)c2ccns2)c2c1C(=O)NCC1(CCOCC1)C2 0.1 to 0.5 µM

Next compound: CCc1nn(CCCOC(=O)c2coc(C)n2)c2c1C(=O)NCC1(CCOCC1)C2 > 0.5 µM

Next compound: CCc1nn(CCCOC(=O)c2ccc(C)cn2)c2c1C(=O)NCC1(CCOCC1)C2 0.1 to 0.5 µM

* * *

Observed IC50 for human PDE4D catalytic domain (Homo sapiens), reported per entry below.

CCc1nn(CCCOC(=O)C2CCS(=O)(=O)C2)c2c1C(=O)NCC1(CCOCC1)C2 (stereo not drawn)	> 500 nM

What value of IC50 has been recorded for this entry: CCc1nn(CC(C)(C)COC(=O)C2CCOCC2)c2c1C(=O)NCC1(CCOCC1)C2 100 to 500 nM

Next compound: CCc1nn(CCCOC(=O)C2CCOC2)c2c1C(=O)NCC1(CCOCC1)C2 (stereo not drawn) > 500 nM

Next compound: CCc1nn(CCCOC(=O)c2cc[nH]n2)c2c1C(=O)NCC1(CCOCC1)C2 100 to 500 nM

* * *

As shown below, each of these compounds has a reported pIC50 value.
molecular target: human PDE4D catalytic domain (Homo sapiens, UniProt Q08499)
Sequence (Q08499 380-740): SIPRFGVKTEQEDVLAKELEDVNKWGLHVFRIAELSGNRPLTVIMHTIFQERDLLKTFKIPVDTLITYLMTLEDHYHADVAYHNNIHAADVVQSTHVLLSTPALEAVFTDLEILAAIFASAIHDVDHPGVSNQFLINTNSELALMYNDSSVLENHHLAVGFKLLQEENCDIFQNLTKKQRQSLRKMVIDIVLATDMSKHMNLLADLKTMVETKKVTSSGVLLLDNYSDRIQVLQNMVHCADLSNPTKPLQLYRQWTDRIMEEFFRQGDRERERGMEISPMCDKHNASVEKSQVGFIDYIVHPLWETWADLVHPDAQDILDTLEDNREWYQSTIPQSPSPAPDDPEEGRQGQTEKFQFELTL
pIC50: −log10 of the molar value.

CCc1nn(CCCOC(=O)c2cnco2)c2c1C(=O)NCC1(CCOCC1)C2 [Example 24]	< 6.30

What value of pIC50 has been recorded for this entry: CCc1nn(CCOC(=O)c2ccno2)c2c1C(=O)NCC1(CCOCC1)C2 [Example 1] 6.30 to 7.00

Next compound: CCc1nn(CCOC(=O)c2cc(C)n(C)n2)c2c1C(=O)NCC1(CCOCC1)C2 [Example 10] < 6.30

Next compound: CCc1nn(CCCOC(=O)c2cc(C)on2)c2c1C(=O)NCC1(CCOCC1)C2 [Example 44] 6.30 to 7.00

Next compound: CCc1nn(CCCOC(=O)c2oncc2C)c2c1C(=O)NCC1(CCOCC1)C2 [Example 42] 6.30 to 7.00

Next compound: CCc1nn(CCCOC(=O)c2ccnnc2C)c2c1C(=O)NCC1(CCOCC1)C2 [Example 67] < 6.30

* * *

Observed IC50 for human PDE4D catalytic domain (Homo sapiens), reported per entry below.

Solved cases below.
CCc1nn(CCCOC(=O)C2CCCN(C(=O)OC)C2)c2c1C(=O)NCC1(CCOCC1)C2 (centres unmarked)	100 to 500 nM
CCc1nn(CCCOC(=O)c2cc(C)nn2CC)c2c1C(=O)NCC1(CCOCC1)C2	100 to 500 nM
CCc1nn(CCCOC(=O)c2snnc2C)c2c1C(=O)NCC1(CCOCC1)C2	> 500 nM
CCc1nn(CCCOC(=O)c2ccnc(C)n2)c2c1C(=O)NCC1(CCOCC1)C2	> 500 nM
CCc1nn(CCCOC(=O)c2cnon2)c2c1C(=O)NCC1(CCOCC1)C2	100 to 500 nM
CCc1nn(CCOC(=O)Cc2cc(C)on2)c2c1C(=O)NCC1(CCOCC1)C2	> 500 nM
CCc1nn(CCCOC(=O)c2cnc(C)n2C)c2c1C(=O)NCC1(CCOCC1)C2	100 to 500 nM
CCc1nn(CCCOC(=O)C2CCCN(C(C)=O)C2)c2c1C(=O)NCC1(CCOCC1)C2 (centres unmarked)	> 500 nM

Provide the documented IC50 with human PDE4D catalytic domain (Homo sapiens) as the system for CCc1nn(CCCOC(=O)c2ocnc2C)c2c1C(=O)NCC1(CCOCC1)C2 100 to 500 nM

Next compound: CCc1nn(CCCOC(=O)c2c[nH]cn2)c2c1C(=O)NCC1(CCOCC1)C2 > 500 nM

Next compound: CCc1nn(CCOC(=O)c2cc(C)on2)c2c1C(=O)NCC1(CCOCC1)C2 100 to 500 nM
